- Target Desc: human GHS-R 1a (Homo sapiens, UniProt Q92847)
- Sequence (Q92847 whole entry): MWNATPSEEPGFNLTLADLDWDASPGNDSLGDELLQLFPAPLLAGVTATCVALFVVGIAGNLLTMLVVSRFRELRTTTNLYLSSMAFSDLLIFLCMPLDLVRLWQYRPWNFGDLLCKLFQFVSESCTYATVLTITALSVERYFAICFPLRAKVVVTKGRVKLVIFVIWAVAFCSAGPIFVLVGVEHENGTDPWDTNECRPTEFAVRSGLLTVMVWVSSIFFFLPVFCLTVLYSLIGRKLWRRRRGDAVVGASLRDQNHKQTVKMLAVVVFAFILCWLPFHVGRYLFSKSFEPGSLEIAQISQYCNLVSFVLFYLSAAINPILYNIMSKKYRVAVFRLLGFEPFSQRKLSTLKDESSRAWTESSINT
- Experiment Notes: In vitro intracellular calcium release assay using human GHS-R 1a transfected CHO cells
- Assay type: cell-based
- Set-up: expressed in transfected cells; host or cells: CHO-K1 Chinese hamster ovary cells (ATCC No. CCL-61), transient transfection by electroporation
- Run Conditions: intracellular calcium release, compound at 10^-6 M, relative to basal level (0%) and 1 μM ghrelin (100%)
Recorded Metric: activation at 1 µM
Reply with the number, then its unit.

Sample answers from the record:
> print(dat)
                                   compound  result.value
1  O=C(N[C@H](Cc1c[nH]c2ccccc12)c1nnc(CCc2c[nH]c3ccccc23)n1Cc1cccc2ccccc12)c1cnccn1 [Compound 32]            0%
2  O=C(Cc1ccccn1)N[C@H](Cc1c[nH]c2ccccc12)c1nnc(Cc2ccccc2)n1Cc1ccc(Cl)c(Cl)c1 [Compound 34]            0%
3  COc1ccc(Cn2c(CCc3ccccc3)nnc2[C@@H](Cc2c[nH]c3ccccc23)NC(=O)c2ccnnc2)c(OC)c1 [Compound 7]            3%

What activation at 1 µM value was documented for this compound, O=C(N[C@H](Cc1c[nH]c2ccccc12)c1nnc(CCc2c[nH]c3ccccc23)n1Cc1cccc2ccccc12)C1CCNCC1 [Compound 17] ?
94%

Looking for the measured activation at 1 µM of O=C(N[C@H](Cc1c[nH]c2ccccc12)c1nnc(CCc2ccccc2)n1Cc1cccc2ccccc12)C1CCNCC1 [Compound 15] , can you help?
120%

# get_value(readout='activation at 1 µM', item= COc1ccc(Cn2c(CCc3ccccc3)nnc2[C@@H](Cc2c[nH]c3ccccc23)NC(=O)c2ccn[nH]2)c(OC)c1 [Compound 8] )
0%

Reported activation at 1 µM for O=C(N[C@H](Cc1c[nH]c2ccccc12)c1nnc(CCCc2c[nH]c3ccccc23)n1Cc1ccccc1)C1CCOCC1 [Compound 23] : what is it?
15%

Each recorded value in this set is attributed to patent US20090239877A1.
